Listing: Number of Mice Protected of selected compounds
# System: pentylenetetrazole (PTZ) induced seizures
# assay.name: Latency to and protection against PTZ induced seizures in mice
# Assay type: in vivo
# run.parameters: number of mice out of ten that did not seize within 15 minutes after PTZ 85 mg/kg s.c.; compound 1400 μmol/kg intra-peritoneally
# Experimental: Male CD1 mice (Charles River, Portage, Mich.) weighing 25-35 g were used and during the experiment the mice were housed individually in clear polycarbonate cages for observation. For each experiment, ten mice were each pretreated intra-peritoneally with a compound of the present invention (1400 μmol/kg) prior to pentylenetetrazole (PTZ) (Sigma, St. Louis, Mo.) injection. Seizures were induced by the subcutaneous injection of PTZ (85 mg/kg) just below the nape of the neck. […]
Reply with just the number.

Here are 4 compounds together with their reported answers.
CC#CC[C@@H](CCC)C(=O)NCC(N)=O    5
CC#CC[C@@H](CCC)C(=O)N[C@H](C)C(N)=O    2
CC#CC[C@@H](CCC)C(=O)N[C@@H](CC(C)C)C(N)=O    4
CC#CC[C@@H](CCC)C(=O)N[C@@H](C)C(N)=O    6

Entry "CC#CC[C@@H](CCC)C(=O)N[C@H](C(N)=O)C(C)C" , system pentylenetetrazole (PTZ) induced seizures: what Number of Mice Protected was measured? 1

Entry CC#CC[C@@H](CCC)C(N)=O [Example 6, (2R)-2-propyl-4-hexynamide] , system pentylenetetrazole (PTZ) induced seizures: what Number of Mice Protected was measured? 10
